These data points were gathered from PubChem BioAssay (EPA / NIEHS).

Read-out: Cyclin D1 (CCND1), CCND1 (gene 595)
Assay: LTEA_HepaRG_CCND1: Life Technologies and Expression Analysis (LTEA) Assay for Cyclin D1 (CCND1) using HepaRG (AID 2283451)
Details: mRNA level, 48 h; actives raise or lower the signal
Protocol: LTEA_HepaRG is a cell based, multiplexed-readout assay that uses HepaRG, a human liver cell line, with measurements taken at 48 hours after chemical dosing on a 96-well plate.LTEA_HepaRG_CCND1 is one of 102 assay component(s) measured in the LTEA HepaRG cell culture assay. It is a marker of Cell proliferation, survival, death.Data from the assay component LTEA_HepaRG_CCND1 was analyzed into 1 endpoint. […]
The source made the active and inactive calls. How the source made its calls: active means hit-call score of the fitted dose curve at least 0.9, where 1 is the maximum; inactive means score below 0.9.
Please state which outcome applies, choosing from Yes for active, No for inactive

compound	label
COc1cc(C(C)C)c2c(c1)S(=O)(=O)N(COc1cc(=O)n3cccc(OCCN4CCCCC4)c3n1)C2=O	Yes

Now consider the entry below.
Could you check what this test reported for `Cc1ncc([C@@H](CCCCCCc2ccc3c(n2)NCCC3)CC(=O)O)cn1` ?
No

---

Experiment: Tanguay_ZF_120hpf_JAW_legacy: (Legacy) Oregon State University Tanguay Lab 120 Hour Post-fertilization zebrafish Assay for Jaw Malformation (AID 2283638)
Description: Tanguay_ZF_120hpf_legacy is a whole embryo, multiplexed endpoint assay using zebrafish larvae exposed for 120 hours post fertilization on a 96-well plate.Tanguay_ZF_120hpf_JAW_legacy is one of one assay component(s) measured or calculated from the Tanguay_ZF_120hpf_legacy assay. […] This assay endpoint, Tanguay_ZF_120hpf_JAW_legacy, was analyzed in the positive analysis fitting direction relative to DMSO as the negative control and baseline of activity. […]
Records with an inconclusive call do not appear. Activity calls are given as the source filed them. Rule for the calls: active = hit-call score of the fitted dose curve at least 0.9, where 1 is the maximum; inconclusive = response in the unintended direction; inactive = score below 0.9.
Give one outcome, nothing more. List: YES (active), NO (inactive)

compound	label
CC1(C)C(=O)N(Cl)C(=O)N1Cl	NO
COCc1nnc(-c2ccc[n+]([O-])c2)n1-c1c(Cl)c(Cl)cc2[nH]c(=O)c(=O)[nH]c12	NO
c1ccc2cc3ccccc3cc2c1	NO
CCCOc1ccc(S(=O)(=O)N2CCN(CC)CC2)cc1-c1nc2c(CC)n(Cc3ccccn3)nc2c(=O)[nH]1	NO
c1ccc(C(O[C@@H]2CCCN(CCc3ccc4c(c3)OCO4)C2)c2ccccc2)cc1	YES

For `O=C(NO)C1(NS(=O)(=O)c2ccc(Oc3ccc(F)cc3)cc2)CCOCC1` , which call appears in the assay record?
NO

Per the assay record, what outcome was assigned to CCCCC(CC)C(=O)OCCOCCOCCOC(=O)C(CC)CCCC (stereo unspecified) ?
NO

For `C[C@@H](Oc1ccc(CNC(=O)c2cccnc2Oc2ccc3c(c2)OCO3)c(F)c1)C(=O)O` , which call appears in the assay record?
NO

State the result this test recorded for `COc1cc(C(C)C)c2c(c1)S(=O)(=O)N(COc1cc(=O)n3cccc(OCCN4CCCCC4)c3n1)C2=O` .
NO

What call does the record list for `NNC(=O)c1ccncc1` ?
NO

Lab log entry: `OC[C@H]1O[C@@H]2O[C@H]3[C@H](O)[C@@H](O)[C@@H](O[C@H]4[C@H](O)[C@@H](O)[C@@H](O[C@H]5[C@H](O)[C@@H](O)[C@@H](O[C@H]6[C@H](O)[C@@H](O)[C@@H](O[C@H]7[C@H](O)[C@@H](O)[C@@H](O[C@H]1[C@H](O)[C@H]2O)O[C@@H]7CO)O[C@@H]6CO)O[C@@H]5CO)O[C@@H]4CO)O[C@@H]3CO` — outcome as called in the assay?
NO

How did this test come out for `Nc1ccn([C@@H]2O[C@H](CO)[C@@H](O)[C@@H]2O)c(=O)n1` ?
NO

What call does the record list for `CCCCCCCCCCCCCCO` ?
NO

Hey, what did the test say about `CCn1nc(C)c2c1C(=O)NCC(c1ccc(O)cc1)=N2` ?
NO

Per the assay record, what outcome was assigned to `Cc1ccc(S(=O)(=O)NC(=O)NN2CCCCCC2)cc1` ?
NO

Assay outcome for `CCCCCOC(C)=O` : what was it?
NO

In this assay, the call recorded for `O=C(O)c1cccc(C(=O)O)c1` was what?
NO

What is the recorded call for this compound in the test? `Cc1nccn1-c1ccc(Sc2cccc(C3(C(N)=O)CCOCC3)c2)cc1`
NO

Look up the recorded call for `CCCCN1C(=O)[C@@H]([C@H](O)C2CCCCC2)NC(=O)C12CCN(Cc1ccc(Oc3ccc(C(=O)O)cc3)cc1)CC2` in this test.
NO

Outcome? `CCCC(CCC)C(=O)O`
NO

How did this test come out for `CCOc1ccc2[nH]cc(C(=O)NCc3ccccc3)c(=O)c2n1` ?
NO
